Study system: Mitogen-activated protein kinase 14 (Homo sapiens);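 further: values are mean percent inhibition of p38alpha kinase activity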
Cond: at 1 µM
Please respond with reported inhibition for every item in the list.
The answer is to be given in %; state only the numeric part.

Input: Consider the compound O=C(Nc1n[nH]c2cc(-c3ccc(F)cc3)ccc12)C1CC1 . State its measured inhibition.
Output: 7.71

Input: Consider the compound Nc1nc(-c2cccc(Cl)c2)c(-c2ccc3ncccc3n2)s1 . State its measured inhibition.
Output: 50

Input: Consider the compound COc1cccc(-c2c[nH]c3c(N/N=C/c4ccncc4)ncnc23)c1 . State its measured inhibition.
Output: 13.3

Input: Consider the compound NS(=O)(=O)c1ccc(Nc2ncc(-c3ccccc3)o2)cc1 . State its measured inhibition.
Output: 9.04

Input: Consider the compound COC(=O)Nc1nc2ccc(Oc3ccc(NC(=O)Nc4cccc(Cl)c4)cc3)cc2[nH]1 . State its measured inhibition.
Output: 12

Input: Consider the compound CCn1c(-c2nonc2N)nc2cnc(Oc3cccc(NC(=O)c4ccc(N(C)C)cc4)c3)cc21 . State its measured inhibition.
Output: 8.29

Input: Consider the compound CC(=O)NCc1cccc(C#Cc2cncnc2Nc2ccc(OCc3cccc(F)c3)c(Cl)c2)c1 . State its measured inhibition.
Output: -0.7

Input: Consider the compound Fc1ccc(-c2nn3ccccc3c2-c2ccncc2)cc1 . State its measured inhibition.
Output: 81.2

Input: Consider the compound CCN1CCC(CC(=O)Nc2n[nH]c3nnc(-c4cccc(F)c4F)cc23)CC1 . State its measured inhibition.
Output: 1.76

Input: Consider the compound c1cc(-c2cnn3nc(N4CCOCC4)ccc23)nc(NC2CC2)n1 . State its measured inhibition.
Output: 16.6

====

Study system: Calcium/calmodulin-dependent protein kinase type 1D (Homo sapiens) (UniProt Q8IU85)
Sequence (Q8IU85 whole entry, looked up): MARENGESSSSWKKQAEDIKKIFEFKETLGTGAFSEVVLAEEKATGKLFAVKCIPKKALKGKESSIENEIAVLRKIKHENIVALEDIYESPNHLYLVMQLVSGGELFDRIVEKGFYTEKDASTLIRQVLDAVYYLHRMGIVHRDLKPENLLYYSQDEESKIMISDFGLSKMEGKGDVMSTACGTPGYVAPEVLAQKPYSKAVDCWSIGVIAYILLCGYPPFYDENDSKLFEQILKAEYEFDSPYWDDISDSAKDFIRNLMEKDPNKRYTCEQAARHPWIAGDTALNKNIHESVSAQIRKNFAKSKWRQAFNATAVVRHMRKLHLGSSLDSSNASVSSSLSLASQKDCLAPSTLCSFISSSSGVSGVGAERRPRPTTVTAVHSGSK
Cond: at 0.1 µM
Measured quantity: inhibition (%)
The answer is to be given in %; state only the numeric part.

Input: Determine reported inhibition for CS(=O)(=O)CCNCc1ccc(-c2ccc3ncnc(Nc4ccc(OCc5ccccc5)c(C(F)(F)F)c4)c3c2)o1 ; test system: Calcium/calmodulin-dependent protein kinase type 1D (Homo sapiens) (UniProt Q8IU85).
Output: 0.11

Input: Determine reported inhibition for CC(=O)NCc1cccc(C#Cc2cncnc2Nc2ccc(OCc3cccc(F)c3)c(Cl)c2)c1 ; test system: Calcium/calmodulin-dependent protein kinase type 1D (Homo sapiens) (UniProt Q8IU85).
Output: 0.67

Input: Determine reported inhibition for CCOc1ccc2c(-c3ccnc(Nc4cccc(C(F)(F)F)c4)n3)cnn2n1 ; test system: Calcium/calmodulin-dependent protein kinase type 1D (Homo sapiens) (UniProt Q8IU85).
Output: 1

Input: Determine reported inhibition for FC(F)(F)c1cccc(-c2nn3ncccc3c2-c2ccnc(Nc3ccc4c(c3)OCCO4)n2)c1 ; test system: Calcium/calmodulin-dependent protein kinase type 1D (Homo sapiens) (UniProt Q8IU85).
Output: -0.54

Input: Determine reported inhibition for NC(=O)c1sc(-n2cnc3ccc(C(F)(F)F)cc32)cc1OCc1ccccc1Br ; test system: Calcium/calmodulin-dependent protein kinase type 1D (Homo sapiens) (UniProt Q8IU85).
Output: -0.93

Input: Determine reported inhibition for COc1cc(Nc2nccc(Nc3ccc4c(C)n[nH]c4c3)n2)cc(OC)c1OC ; test system: Calcium/calmodulin-dependent protein kinase type 1D (Homo sapiens) (UniProt Q8IU85).
Output: 3.39

Input: Determine reported inhibition for Cc1ccc(O)cc1Nc1ccnc2cc(-c3ccccn3)ccc12 ; test system: Calcium/calmodulin-dependent protein kinase type 1D (Homo sapiens) (UniProt Q8IU85).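 Further: reported figure is the mean inhibition of CAMK1D, from the GSK PKIS screening.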
Output: 1.22
